The measurements presented in this section are drawn from patent US10358434B2.

# method-description: In vivo kinetics experiment (radioactivity distribution)
# Set-up: species or system Wistar male rat
# measurement-setup: rat, caudal vein, 10 min after administration
The threshold is inclusive: Radioactivity distribution Muscle (lower limbs) of exactly 0.2 % ID/g counts as fulfilled; values below receive not fulfilled.

compound="FCCn1c(-c2cncc(Cn3ccnc3)c2)nc2cc(F)c([123I])cc21 [[^123I] 400]" class_label="not fulfilled"
compound="Fc1cc2nc(-c3cncc(Cn4ccnc4)c3)n(CC[18F])c2cc1Cl [[^18F] 100]" class_label=fulfilled
compound="Fc1cc2nc(-c3cncc(Cn4ccnc4)c3)n(CCC[18F])c2cc1Cl [[^18F] 500]" class_label=fulfilled
compound="[123I]c1ccc2nc(-c3cncc(Cn4ccnc4)c3)n(C3CC3)c2c1 [[^123I] 602]" class_label="not fulfilled"
compound="[123I]c1ccc2nc(-c3cncc(Cn4ccnn4)c3)n(C3CC3)c2c1 [[^123I] 603]" class_label="not fulfilled"
compound="Fc1cc2nc(-c3cncc(Cn4ccnc4)c3)n(CC[18F])c2cc1Br [[^18F] 200]" class_label="not fulfilled"

----------
# method-description: In vivo kinetics experiment (radioactivity distribution)
# Design: species or system Wistar male rat
# measurement-setup: 10 min after administration; rat i.v.; mean ± SD
The threshold is inclusive: Adrenal gland/small intestine ratio of radioactivity accumulation of exactly 5 counts as 1 (yes); values below receive 0 (no).

compound="FCCn1c(-c2cncc(Cn3ccnc3)c2)nc2ccc([123I])cc21 [[^123I] 604]" class_label="1 (yes)"
compound="COC(=O)c1cncn1[C@H](C)c1ccc(I)cc1 [[^123I] IMTO, (R)-[^123I]iodometomidate, reference compound]" class_label="1 (yes)"
compound="CC(C)n1c(-c2cncc(Cn3ccnc3)c2)nc2ccc([123I])cc21 [[^123I] 606]" class_label="1 (yes)"
compound="FCCn1c(-c2cncc(Cn3cncc3[123I])c2)nc2cc(F)c(Cl)cc21 [[^123I] 610]" class_label="1 (yes)"
compound="Cn1c(-c2cncc(Cn3ccnc3)c2)nc2ccc([123I])cc21 [[^123I] 607]" class_label="0 (no)"
compound="Fc1cc2nc(-c3cncc(Cn4ccnc4)c3)n(Cc3ccc([123I])cc3)c2cc1Cl [[^123I] 605]" class_label="0 (no)"

----------
# method-description: In vivo kinetics experiment (radioactivity distribution)
# Parameters: species or system Wistar male rat
# measurement-setup: 10 min after administration; rat i.v.; mean ± SD
# Experimental: Each of Compounds [^18F] 100, [^18F] 200, [^123I] 400, [^18F] 500, and [^123I] 601 to 610 obtained by the methods described in Examples 2, 4, 7, 9, 11, 13, 15, 17, 19, 21, 23, 25, 27, and 29, or [^123I] […] From the thus sacrificed rat, blood and organs (heart, lung, stomach, liver, spleen, small intestine, large intestine, kidney, bladder (including urine), muscle (lower limbs), brain, adrenal gland, testis, fat, femur, or thyroid gland) were excised, and the weights thereof were then measured. […]
quantity-kind: Adrenal gland/muscle ratio of radioactivity accumulation

molecule="FCCn1c(-c2cncc(Cn3ccnc3)c2)nc2ccc([123I])cc21 [[^123I] 604]" result="67.00 ± 51.23"
molecule="FCCn1c(-c2cncc(Cn3cncc3[123I])c2)nc2cc(F)c(Cl)cc21 [[^123I] 610]" result="62.69 ± 29.38"
molecule="Cn1c(-c2cncc(Cn3ccnc3)c2)nc2ccc([123I])cc21 [[^123I] 607]" result="64.58 ± 8.21"
molecule="COC(=O)c1cncn1[C@H](C)c1ccc(I)cc1 [[^123I] IMTO, (R)-[^123I]iodometomidate, reference compound]" result="126.18 ± 54.27"
molecule="Fc1cc2nc(-c3cncc(Cn4ccnc4)c3)n(Cc3ccc([123I])cc3)c2cc1Cl [[^123I] 605]" result="36.77 ± 3.87"
molecule="CCn1c(-c2cncc(Cn3ccnc3)c2)nc2ccc([123I])cc21 [[^123I] 608]" result="57.35 ± 15.85"
molecule="CC(C)n1c(-c2cncc(Cn3ccnc3)c2)nc2ccc([123I])cc21 [[^123I] 606]" result="57.42 ± 9.23"
molecule="COc1cc([123I])cc2c1nc(-c1cncc(Cn3ccnc3)c1)n2C1CC1 [[^123I] 609]" result="46.03 ± 17.74"
